target: IDO1 (Homo sapiens); assay: IDO1 Human Whole Blood Assay; assay type: cell-based; details: WBLD taken as whole blood; read-out: WBLD IC50
Sequence (P14902 whole entry): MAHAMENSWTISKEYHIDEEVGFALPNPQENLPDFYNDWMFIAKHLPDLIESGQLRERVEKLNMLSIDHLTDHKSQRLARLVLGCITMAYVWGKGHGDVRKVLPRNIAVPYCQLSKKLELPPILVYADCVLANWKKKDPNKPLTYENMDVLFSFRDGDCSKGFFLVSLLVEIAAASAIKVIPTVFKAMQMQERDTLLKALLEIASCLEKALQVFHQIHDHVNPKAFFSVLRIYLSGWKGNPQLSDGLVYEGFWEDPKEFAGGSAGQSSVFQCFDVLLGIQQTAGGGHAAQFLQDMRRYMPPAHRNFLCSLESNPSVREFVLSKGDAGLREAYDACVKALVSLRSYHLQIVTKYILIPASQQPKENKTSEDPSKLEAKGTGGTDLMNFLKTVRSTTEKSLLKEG
QUANTITY: pIC50
Note on units: pIC50 is unitless, being -log10 of a concentration expressed in mol/L.

Observe how each entry below is paired with its result.
| COMPOUND | pIC50 |
| --- | --- |
| Cc1ccccc1OC1CCN(C(=O)Cn2nc(C(=O)N3CC[C@H](O)[C@H](F)C3)c3c2CCCC3)CC1 | 6.23 |
| O=C(CO)N1CCN(C(=O)c2nn(CC(=O)N3CCC(Oc4ccccc4Cl)C4CC43)c3c2[C@@H]2C[C@@H]2C3)CC1 (single isomer, unassigned) | 6.99 |

--- query ---
Specify reported pIC50 for the compound shown: `Cc1cc(F)ccc1OC1CCN(C(=O)Cn2nc(C(=O)N3CCO[C@H](CO)C3)c3c2CCCC3)CC1` 7.05

* * *

molecular target: IDO1 (Homo sapiens); test: IDO1 Human Whole Blood Assay; type: cell-based; settings: WBLD taken as whole blood; read-out: WBLD IC50
QUANTITY: IC50

Consider the following illustrative entries.
| COMPOUND | QUANTITY | VALUE_OBSERVED |
| --- | --- | --- |
| Cc1ccc(Cl)c(OC2CCN(C(=O)Cn3nc(C(=O)N4C[C@@H](C)O[C@@H](C)C4)c4c3CCC4)CC2)c1 | IC50 | 265 nM |
| O=C(c1nn(CC(=O)N2CCC(Oc3ccccc3Cl)C3CC32)c2c1[C@@H]1C[C@@H]1C2)N1CCC(OCCO)CC1 (single isomer, unassigned) | IC50 | 150 nM |
| C[C@@H]1CN(C(=O)c2nn(CC(=O)N3CCC(Oc4cccc(F)c4)CC3)c3c2CCC3)C[C@H](C)O1 | IC50 | 575 nM |
| Cc1ccccc1OC1CCN(C(=O)Cn2nc(C(=O)N3CC[C@@H](O)[C@@H](F)C3)c3c2CCCC3)CC1 | IC50 | 108 nM |
| Cc1cc(F)ccc1OC1CCN(C(=O)Cn2nc(C(=O)N3CC[C@H](O)[C@H](F)C3)c3c2CCCC3)CC1 (racemic) | IC50 | 267 nM |
| C[C@@H]1C[C@H](Oc2ccccc2Cl)CCN1C(=O)Cn1nc(C(=O)N2CCN(C(=O)CO)CC2)c2c1C[C@H]1C[C@@H]21 | IC50 | 315 nM |
| Cc1ccccc1OC1CCN(C(=O)Cn2nc(C(=O)N3CCC(O)CC3)c3c2CCCC3)CC1 | IC50 | 64 nM |
| C[C@@H]1CN(C(=O)c2nn(CC(=O)N3CCC(Oc4cc(F)ccc4Br)CC3)c3c2CCC3)C[C@H](C)O1 | IC50 | 86.6 nM |

Return value of IC50 for input `Cc1ccccc1OC1CCN(C(=O)Cn2nc(C(=O)N3CCC(OCCO)CC3)c3c2CCC3)CC1` , no commentary. 27.3 nM

Input `Cc1ccccc1OC1CCN(C(=O)Cn2nc(C(=O)N3CCC(O)CC3)c3c2CCC3)CC1` , output reported IC50. 85.9 nM

Recall and state the measured IC50 for `C[C@@H]1CN(C(=O)c2nn(CC(=O)N3CCC(Oc4ccc(Cl)c5c4CCC5)CC3)c3c2CCC3)C[C@H](C)O1` . 3320 nM

Return the recorded IC50 value; entry: Cc1ccc(F)cc1OC1CCN(C(=O)Cn2nc(C(=O)N3C[C@@H](C)O[C@@H](C)C3)c3c2CCC3)CC1 [Example 135] 112 nM

Supply recorded IC50 for `Cc1ccccc1OC1CCN(C(=O)Cn2nc(C(=O)N3CCC(O)(CF)CC3)c3c2CCCC3)CC1` here. 93.8 nM

Look up IC50 of `C[C@@H]1CN(C(=O)c2nn(CC(=O)N3CCC(Oc4ccc(F)cc4Cl)CC3)c3c2CCC3)C[C@H](C)O1` and report it. 490 nM
